Assembled from different publications: IC50 for Tyrosine-protein phosphatase non-receptor type 2 (Homo sapiens).

// known answers, use as guide
COc1cc(-c2ccc(O)c(N3CC(=O)NS3(=O)=O)c2F)ccn1 = ≤ 1 µM
O=C(NC1CCS(=O)(=O)C1)c1ccc2sc(C(F)(F)P(=O)(O)O)c(Br)c2c1 (centres unmarked) = 3.93 µM
CC(C)(O)c1ccc(CNC(=O)c2ccc3sc(C(F)(F)P(=O)(O)O)c(Br)c3c2)cn1 = 3.16 µM

Q: Provide measured IC50 on Tyrosine-protein phosphatase non-receptor type 2 (Homo sapiens) for O=C1CN(c2c(O)ccc(C3=CCN(S(=O)(=O)c4ccccc4)C3)c2F)S(=O)(=O)N1 please.
Result: ≤ 1 µM

Q: Provide measured IC50 on Tyrosine-protein phosphatase non-receptor type 2 (Homo sapiens) for COCCCc1cc(-c2ccc(O)c(N3CC(=O)NS3(=O)=O)c2F)[nH]n1 please.
Result: ≤ 1 µM

Q: Provide measured IC50 on Tyrosine-protein phosphatase non-receptor type 2 (Homo sapiens) for Cn1c(=O)c(NCC(C)(F)F)cc2cc(N3CC(=O)NS3(=O)=O)c(O)cc21 please.
Result: ≤ 1 µM
